experimental_target: KRas^G12A (Homo sapiens, UniProt P01116, G12A)
Construct: Biotinylated KRas (corresponding to amino acids 1-169, produced at Accelegan Inc.); biotin (biotinylated); purchased Accelegan Inc
Sequence (P01116 1-169 isoform P01116-2 G12A): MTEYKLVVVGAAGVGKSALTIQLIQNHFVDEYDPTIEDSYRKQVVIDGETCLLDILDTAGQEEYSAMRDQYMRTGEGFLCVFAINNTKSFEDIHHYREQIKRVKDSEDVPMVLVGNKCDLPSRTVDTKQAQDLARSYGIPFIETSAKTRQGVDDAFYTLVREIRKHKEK
protocol_description: KRas binding assay (TR-FRET tracer displacement), KRas G12A
test_settings: single point, 10 nM compound, TR-FRET
parameter_measured: inhibition at 0.01 µM (%)

I: CCc1c(F)ccc2cc(O)cc(-c3ncc4c(N5CCC[C@@](C)(O)C5)nc(OC[C@@]56CCCN5[C@H](COC(=O)N5CCCC5)CC6)nc4c3F)c12
II: CCc1c(F)ccc2cc(O)cc(-c3ncc4c(N5CCCn6nncc6C5)nc(OC[C@@]56CCCN5C[C@H](F)C6)nc4c3F)c12
Thinking about recorded inhibition at 0.01 µM values, which is higher, I or II ? // respond with label for picked entry I
(I: 95%, II: 59%)

P: CCc1c(F)ccc2cc(O)cc(-c3ncc4c(N5CCCC6(CNS(=O)(=O)N6)C5)nc(OC[C@]56CCCN5[C@H](COC(=O)N(C)C)CC6)nc4c3F)c12 (stereo partly drawn)
Q: CCc1cccc2cc3[nH]ncc3c(-c3ncc4c(N5C[C@@H]6C[C@H](C5)[C@H](O)C6)nc(OC[C@@]56CCCN5C[C@H](F)C6)nc4c3F)c12
Would you kindly point out which of P and Q has the smaller inhibition at 0.01 µM figure? // respond with label for picked entry Q
(Q: 54%, P: 83%)
